Test system: OVCAR-8
Assay: NCI tumour cell line growth inhibition, 48 h
Active and inactive are the calls of the source. Rule as the data show it: active = GI50 up to about 1.1 µM and inactive = higher.
observable: GI50

compound="N#Cc1nc(C2CCC(=O)O2)oc1N (configuration not stated)" system_under_test=OVCAR-8 measured_result="> 100 µM (inactive)"
compound=CC(C)OP(=O)(CN(C)/C(F)=N\C(F)(F)F)OC(C)C system_under_test=OVCAR-8 measured_result="> 100 µM (inactive)"
compound=CC(C)Oc1cccc(N2C(n3ccnc3)=Nc3ccncc3S2(=O)=O)c1 system_under_test=OVCAR-8 measured_result="14.5 µM (inactive)"
compound="COC1C(OC(=O)/C=C/C=C/C=C/C=C\\C(=O)O)CCC2(CO2)C1C1(C)OC1CC=C(C)C (configuration not stated)" system_under_test=OVCAR-8 measured_result="> 100 µM (inactive)"
compound=O=c1ccn(CC2(CO)CCC2)c(=O)[nH]1 system_under_test=OVCAR-8 measured_result="> 100 µM (inactive)"
compound=COC(=O)CSc1nnc(-c2ccccc2)[nH]1 system_under_test=OVCAR-8 measured_result="> 100 µM (inactive)"
compound="O=C(CC(C(=O)c1cccs1)c1ccc2c(c1)OCO2)c1ccccc1 (configuration not stated)" system_under_test=OVCAR-8 measured_result="> 100 µM (inactive)"
compound=COC(=O)C1=C(C)NC(C)=C(C(=O)OC)C1c1cccc(NO)c1 system_under_test=OVCAR-8 measured_result="16.4 µM (inactive)"
compound=O=C1C=Cc2noc3cccc1c23 system_under_test=OVCAR-8 measured_result="2.88 µM (inactive)"
compound=CNc1nc(C(N)=O)c(N)s1 system_under_test=OVCAR-8 measured_result="> 100 µM (inactive)"
compound=N#Cc1cccnc1Cl system_under_test=OVCAR-8 measured_result="> 100 µM (inactive)"
compound=Cc1ccc(/C=C2\NC(=S)N(CN3CCOCC3)C2=O)cc1 system_under_test=OVCAR-8 measured_result="> 100 µM (inactive)"
